Just for reference, patent US12129246B1 is where these values come from.

# Target of assay: monkey NPR1 (Macaca fascicularis, UniProt A0A7N9DBT9)
# Sequence (A0A7N9DBT9 entry or part of it): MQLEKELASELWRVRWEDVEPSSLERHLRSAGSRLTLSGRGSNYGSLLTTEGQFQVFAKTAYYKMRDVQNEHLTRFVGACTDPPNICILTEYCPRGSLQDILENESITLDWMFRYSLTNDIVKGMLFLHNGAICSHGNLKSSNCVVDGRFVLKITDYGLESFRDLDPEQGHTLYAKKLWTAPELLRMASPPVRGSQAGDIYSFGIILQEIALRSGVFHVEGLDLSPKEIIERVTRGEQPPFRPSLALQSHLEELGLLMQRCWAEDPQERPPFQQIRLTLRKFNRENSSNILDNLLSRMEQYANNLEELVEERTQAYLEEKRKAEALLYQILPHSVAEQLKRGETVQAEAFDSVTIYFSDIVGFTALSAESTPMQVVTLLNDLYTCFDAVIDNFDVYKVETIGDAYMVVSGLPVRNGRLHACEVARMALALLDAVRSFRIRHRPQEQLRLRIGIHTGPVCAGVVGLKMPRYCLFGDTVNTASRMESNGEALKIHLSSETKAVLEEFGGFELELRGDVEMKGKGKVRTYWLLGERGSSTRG
# Test details: Cellular cGMP production assay, monkey NPR1 expressing CHO-K1 cells (CisBio HTRF)
# Assay type: cell-based
# Recorded conditions: cGMP production, monkey NPR1 CHO-K1 cells, 30 min at 37° C., 12-point dose-response from 30 μM; read-out: Monkey NPR1 AC50
AC50 values for the compounds below.
Quick reminder: number only, in µM, skip the unit.

Guide cases for AC50, answers given:
CC[C@H]([C@H]1CC[C@H](C(=O)O)CC1)N(C)c1nc2c(c(N[C@@H](CN3CCC[C@H](COC)C3)c3cnn(C)c3)n1)C[C@H](c1cccc(F)c1)CC2 [Compound 35]    0.127
CC[C@@H](Nc1nc2c(c(N[C@@H](CN3CCC(OC)CC3)c3cnn(C)c3)n1)C[C@H](c1ccccc1)CC2)[C@H]1CC[C@H](C(=O)O)CC1 [Compound 151]    1.33
CC[C@@H](N(C)c1nc2c(c(N[C@@H](CN3CCC[C@H](C)C3)c3cnn(C)c3C)n1)C[C@H](c1cccc(F)c1)CC2)C12CC(C(=O)O)(C1)C2 [Compound 46]    0.146
CC[C@H]([C@H]1CC[C@H](C(=O)O)CC1)N(C)c1nc2c(c(N[C@@H](CN3CCCC3)c3ccccc3)n1)C[C@H](c1ccccc1)CC2 [Compound 146]    0.702
CC[C@@H](Nc1nc2c(c(N[C@@H](CN3CCCC3)c3ccccc3)n1)CN(c1cccc(F)c1)CC2)[C@H]1CC[C@H](C(=O)O)CC1 [Compound 99]    0.256
CC[C@@H](N(C)c1nc2c(c(N[C@@H](CN3CCC[C@H](CF)C3)c3cnn(C)c3)n1)C[C@](C)(c1ccccc1)CC2)C12CC(C(=O)O)(C1)C2 [Compound 12]    0.073
CC[C@@H](Nc1nc2c(c(N[C@@H](CN3CCCC3)c3ccccc3)n1)C[C@@H](c1ccccc1)CC2)[C@H]1CC[C@H](C(=O)O)CC1 [Compound 115]    0.387
CC[C@@H]([C@H]1CC[C@@](F)(C(=O)O)CC1)N(C)c1nc2c(c(N[C@H](CN3CCC[C@@H](C)C3)c3cnn(C)c3)n1)C[C@@H](c1ccccc1)CC2 [Compound 21]    0.093

So for CC[C@@H](Nc1nc2c(c(N[C@@H](CN3CCCC(F)(F)CC3)c3cnn(CC)c3)n1)C[C@H](c1ccccc1)CC2)[C@H]1CC[C@H](C(=O)O)CC1 [Compound 137] , the logged AC50 turned out to be 0.379

GET /value?item= CC[C@H]([C@H]1CC[C@H](C(=O)O)CC1)N(C)c1nc2c(c(N[C@@H](CN3CC4CCC3C4)c3cnn(C)c3)n1)C[C@](C)(c1ccccc1)CC2 (stereo partly drawn) [Compound 68] &field=AC50 returns 0.095

For this compound ( CC[C@@H](Nc1nc2c(c(N[C@H](CN3CCC[C@H](C)C3)c3cnn(C)c3)n1)C[C@](C)(c1cccc(F)c1)CC2)[C@H]1CC[C@H](C(=O)O)CC1 (stereo in doubt) [Compound 130] ), measured AC50 is 0.205

Reported AC50 of CC[C@@H](Nc1nc2c(c(N[C@@H](CN3CCCCC3)c3cnn(C(C)C)c3)n1)C[C@H](c1ccccc1)CC2)[C@H]1CC[C@H](C(=O)O)CC1 [Compound 100] : 0.161

// AC50 value for CC[C@H]([C@H]1CC[C@H](C(=O)O)CC1)N(C)c1nc2c(c(N[C@@H](CN3CCCCC3)c3cnn(CC)c3)n1)C[C@H](c1cccc(F)c1)CC2 [Compound 91] : 0.184

Entry CC[C@H]([C@H]1CC[C@H](C(=O)O)CC1)N(C)c1nc2c(c(N[C@@H](CN3CC4CCC3C4)c3ccccc3)n1)C[C@H](c1ccccc1)CC2 (stereo partly drawn) [Compound 136] , AC50 reported as 0.516

The compound CC[C@H]([C@H]1CC[C@H](C(=O)O)CC1)N(C)c1nc2c(c(N[C@@H](CN3CCC[C@H](C)C3)c3cnn(C)c3)n1)C[C@@H](c1ccccc1F)CC2 [Compound 141] showed AC50 equal to 0.731

response.value for CC[C@@H](Nc1nc2c(c(N[C@@H](CN3CCC[C@H](C)C3)c3scnc3C)n1)C[C@H](c1ccccc1)CC2)[C@H]1CC[C@H](C(=O)O)CC1 [Compound 73] (field: AC50) = 0.172

get_value(item= CC[C@@H](Nc1nc2c(c(N[C@@H](CN3CCCCC3)c3cnn(CC)c3)n1)C[C@@H](c1cccc(F)c1)CC2)[C@H]1CC[C@H](C(=O)O)CC1 [Compound 50] , readout=AC50) returns 0.135

# AC50 (compound: CC[C@H]([C@H]1CC[C@H](C(=O)O)CC1)N(C)c1nc2c(c(N[C@@H](CN3CCC[C@H](C)C3)c3cnn(C)c3)n1)CN(c1ccc(F)cc1)CC2 [Compound 110] ) is 0.238

###

# Target of assay: UniProtKB A0A7N9DBT9
# Test details: Cellular cGMP production assay, monkey NPR1 expressing CHO-K1 cells (CisBio HTRF)
# Assay type: cell-based
# Recorded conditions: maximum cGMP production as percentage of the maximum cGMP produced with ANP, monkey NPR1 CHO-K1 cells
Outcome measure: Monkey NPR1 Amax (% of ANP)

As a guide, the following entries are already answered.
CC[C@@H](Nc1nc2c(c(N[C@@H](CN3CCC[C@H](C)C3)c3cnn(CC)c3)n1)CN(c1cccc(F)c1)CC2)[C@H]1CC[C@H](C(=O)O)CC1 [Compound 76]    100.861 % of ANP
C[C@H]1CCCN(C[C@H](Nc2nc(N(C)[C@H](C3CC3)[C@H]3CC[C@H](C(=O)O)CC3)nc3c2C[C@H](c2cccc(F)c2)CC3)c2cnn(C)c2)C1 [Compound 47]    96.550 % of ANP

Turning to the following molecule.
Item: CC[C@H]([C@H]1CC[C@H](C(=O)O)CC1)N(C)c1nc2c(c(N[C@@H](CN3C4CCC3CC4)c3cnn(C)c3)n1)C[C@](C)(c1ccccc1)CC2 [Compound 70] | Monkey NPR1 Amax (% of ANP): 100.673 % of ANP

###

# AC50 listing for each entry below
# Target of assay: human NPR1 (Homo sapiens, UniProt P16066)
# Construct: host or cells: CHO-K1
# Sequence (P16066 33-1061): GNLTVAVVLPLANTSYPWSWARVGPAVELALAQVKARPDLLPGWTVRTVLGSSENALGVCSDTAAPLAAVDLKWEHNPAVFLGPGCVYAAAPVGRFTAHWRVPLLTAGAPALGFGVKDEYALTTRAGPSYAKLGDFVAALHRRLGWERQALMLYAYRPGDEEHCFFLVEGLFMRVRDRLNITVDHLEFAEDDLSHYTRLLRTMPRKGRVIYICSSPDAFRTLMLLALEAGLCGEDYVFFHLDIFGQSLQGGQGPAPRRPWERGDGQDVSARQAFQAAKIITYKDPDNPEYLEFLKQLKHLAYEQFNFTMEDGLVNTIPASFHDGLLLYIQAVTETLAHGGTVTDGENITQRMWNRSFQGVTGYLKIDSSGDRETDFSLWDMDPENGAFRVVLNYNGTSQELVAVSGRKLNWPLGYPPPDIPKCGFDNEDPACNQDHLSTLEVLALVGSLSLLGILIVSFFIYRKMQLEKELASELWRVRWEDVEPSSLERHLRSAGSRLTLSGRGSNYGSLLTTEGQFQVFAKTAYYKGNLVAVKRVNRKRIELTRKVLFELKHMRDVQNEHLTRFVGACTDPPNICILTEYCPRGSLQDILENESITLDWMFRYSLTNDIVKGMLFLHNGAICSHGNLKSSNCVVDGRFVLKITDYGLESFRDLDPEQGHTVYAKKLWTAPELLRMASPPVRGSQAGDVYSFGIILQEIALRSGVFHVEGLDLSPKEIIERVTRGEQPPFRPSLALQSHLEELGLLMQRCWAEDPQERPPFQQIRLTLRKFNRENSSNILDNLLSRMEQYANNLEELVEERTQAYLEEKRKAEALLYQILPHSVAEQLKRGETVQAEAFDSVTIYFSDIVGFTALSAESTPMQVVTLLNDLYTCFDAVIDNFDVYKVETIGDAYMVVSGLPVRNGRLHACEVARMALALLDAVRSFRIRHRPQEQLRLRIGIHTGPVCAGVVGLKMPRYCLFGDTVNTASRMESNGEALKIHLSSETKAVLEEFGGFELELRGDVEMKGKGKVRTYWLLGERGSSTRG
# Test details: Cellular cGMP production assay, human NPR1 expressing CHO-K1 cells (CisBio HTRF)
# Type: cell-based
# Recorded conditions: cGMP production, 30 min at 37° C., 12-point dose-response from 30 μM

Example cases with answers are listed next.
CC[C@H]([C@H]1CC[C@H](CC(=O)O)CC1)N(C)c1nc2c(c(N[C@@H](CN3CCC[C@H](C)C3)c3cnn(C)c3)n1)C[C@H](c1ccccc1)CC2    229 nM
CC[C@H]([C@H]1CC[C@H](C(=O)O)CC1)N(C)c1nc2c(c(N[C@@H](CN3C4CCCC3CCC4)c3cnn(C)c3)n1)C[C@H](c1ccccc1)CC2    920 nM
CC[C@H]([C@H]1CC[C@H](C(=O)O)CC1)N(C)c1nc2c(c(N[C@@H](CN3CCC(O)CC3)c3cnn(CC)c3)n1)C[C@H](c1ccccc1)CC2    1240 nM
CC[C@@H](N(C)c1nc2c(c(N[C@@H](CN3C4CCCC3CCC4)c3cnn(C)c3C)n1)C[C@H](c1cccc(F)c1)CC2)C12CC(C(=O)O)(C1)C2    309 nM
CC[C@@H](Nc1nc2c(c(N[C@@H](CN3CCCCC3)c3cnc(C)s3)n1)C[C@H](c1ccccc1)CC2)[C@H]1CC[C@H](C(=O)O)CC1    542 nM

// recorded AC50 for "CC[C@H]([C@H]1CC[C@H](C(=O)O)CC1)N(C)c1nc2c(c(N[C@@H](CN3CCC[C@H](CF)C3)c3cnn(C)c3)n1)C[C@H](c1ccccc1)CC2" : 292 nM

Summary for this compound, "CC[C@H]([C@H]1CC[C@H](C(=O)O)CC1)N(C)c1nc2c(c(N[C@@H](CN3CCC[C@](O)(CC)C3)c3cnn(C)c3)n1)C[C@H](c1ccccc1)CC2" : AC50 is 362 nM
